System: potassium oxonate-induced hyperuricemia in rats
Test: Effect on potassium oxonate-induced hyperuricemia in rats (serum uric acid)
Type: in vivo, rat
Settings: male SD rats, 5 mg/kg oral, 3 h after dosing
Reported serum uric acid levels, time after dosing 3 h by item:
PROPERTY_MEASURED: serum uric acid levels, time after dosing 3 h (µmol/L)

• N#Cc1ccc(-c2cnccc2SC2(C(=O)O)CCC2)n2cc(Br)cc12 [Example 15] = 331.3
• N#Cc1ccc(-c2cnccc2SC2(C(=O)O)CCC2)n2cc(C(F)(F)F)cc12 [Example 7] = 381.3
• N#Cc1ccc(-c2cnccc2SC2(C(=O)O)CCC2)c2cccn12 [Example 8] = 393.9
• N#Cc1ccc(-c2cnccc2SC2(C(=O)O)CCC2)n2cccc12 [Example 1] = 343.2
• CC(C)(Sc1ccncc1-c1ccc(C#N)c2cc(Br)cn12)C(=O)O [Example 16] = 293.9
• N#Cc1ccc(-c2cnccc2SC2(C(=O)O)CCC2)n2cc(Cl)cc12 [Example 13] = 341.4
• N#Cc1cc2c(C#N)ccc(-c3cnccc3SC3(C(=O)O)CCC3)n2c1 [Example 17] = 403.0
• CC(C)(Sc1ccncc1-c1ccc(C#N)c2cc(Cl)cn12)C(=O)O [Example 14] = 337.2
• CC(C)(Sc1ccncc1-c1ccc(C#N)n2cccc12)C(=O)O [Example 9] = 347.1

---

Reported pIC50 by item:
Target: URAT1 (Homo sapiens (Human), UniProt Q96S37)
Test: URAT1 in vitro inhibition activity, Method A (14C-uric acid uptake in HEK293-URAT-4 cells)
Type: cell-based
Conditions: 50 μM 14C-uric acid, 10 min uptake
Procedure: The potency of the compounds of formula (I) as inhibitors of the URAT1 was determined as follow. […] Cells were seeded onto 24-well plates at the density of 2.0×10^5 cells per well. […] The cell lysate was collected to a scintillation vial, and scintillant (4 ml) was added and the radioactivity was counted by a liquid scintillation counter. Inhibiton % data were calculated using the formula […]
Sequence (Q96S37 whole entry): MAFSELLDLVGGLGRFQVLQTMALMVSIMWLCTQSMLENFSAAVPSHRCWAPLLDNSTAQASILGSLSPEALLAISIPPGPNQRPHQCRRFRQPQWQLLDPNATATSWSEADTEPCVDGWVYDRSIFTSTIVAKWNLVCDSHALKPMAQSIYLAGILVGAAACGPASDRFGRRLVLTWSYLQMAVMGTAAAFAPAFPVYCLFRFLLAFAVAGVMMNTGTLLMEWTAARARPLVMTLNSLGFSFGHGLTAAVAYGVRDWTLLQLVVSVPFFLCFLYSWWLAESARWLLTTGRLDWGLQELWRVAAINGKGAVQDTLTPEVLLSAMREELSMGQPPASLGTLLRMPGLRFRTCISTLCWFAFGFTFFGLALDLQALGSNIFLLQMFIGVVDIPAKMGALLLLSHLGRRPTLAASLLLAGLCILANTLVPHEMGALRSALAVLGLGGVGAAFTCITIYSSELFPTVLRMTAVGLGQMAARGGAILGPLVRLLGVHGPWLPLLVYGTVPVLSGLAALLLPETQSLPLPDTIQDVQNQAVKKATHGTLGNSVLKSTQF
pIC50: −log10 of the molar value.
PROPERTY_MEASURED: pIC50

• Cc1cc2c(C#N)ccc(-c3cnccc3SC3(C(=O)O)CCC3)n2c1 = 6.96
• CC(C)(Sc1ccncc1-c1ccc(C#N)c2c(Cl)ccn12)C(=O)O = 7.17
• N#Cc1ccc(-c2cnccc2SC2(C(=O)O)CCC2)n2cccc12 = 7.52
• N#Cc1ccc(-c2cnccc2SC2(C(=O)O)CCC2)n2cc(C(F)(F)F)cc12 = 7.36
• CC(C)(Sc1ccncc1-c1ccc(C#N)c2ccc(Cl)n12)C(=O)O = 6.55
• CC(C)(Sc1ccncc1-c1ccc(C#N)c2cccn12)C(=O)O = 7.18

---

Target: URAT1 (Homo sapiens (Human))
Experiment: URAT1 in vitro inhibition activity, Method B (14C-uric acid uptake in HEK293-URAT1 cells)
Format: cell-based
Conditions: 5.0 μmol/L 14C-uric acid, 2 min uptake
Sequence (Q96S37 whole entry, species assumed): as the sequence (Q96S37 whole entry) above
pIC50: −log10 of the molar value.
PROPERTY_MEASURED: pIC50

* N#Cc1ccc(-c2cnccc2SC2(C(=O)O)CCC2)c2cc(Cl)cn12 | 6.08
* N#Cc1ccc(-c2cnccc2SC2(C(=O)O)CCC2)c2cc(F)cn12 | 6.57
* CC(C)(Sc1ccncc1-c1ccc(C#N)c2cc(Cl)cn12)C(=O)O | 7.52
* N#Cc1ccc(-c2cnccc2SC2(C(=O)O)CCC2)c2cccn12 | 7.26
* N#Cc1ccc(-c2cnccc2SC2(C(=O)O)CCC2)n2cc(Cl)cc12 | 7.59
* COCC(C)(Sc1ccncc1-c1ccc(C#N)c2cccn12)C(=O)O (stereo not shown) | 6.30
* N#Cc1ccc(-c2cnccc2SC2(C(=O)O)CCC2)n2ccc(F)c12 | 7.07
* N#Cc1ccc(-c2cnccc2SC2(C(=O)O)CCC2)n2c(F)ccc12 | 7.47
* N#Cc1ccc(-c2cnccc2SC2(C(=O)O)CCC2)n2cc(Br)cc12 | 7.54
* N#Cc1ccc(-c2cnccc2SC2(C(=O)O)CCC2)n2c(Cl)ccc12 | 7.05
* CS(=O)(=O)c1cc2c(C#N)ccc(-c3cnccc3SC3(C(=O)O)CCC3)n2c1 | 6.48
* N#Cc1ccc(-c2cnccc2SC2(C(=O)O)CCC2)c2ccc(Cl)n12 | 6.37
* N#Cc1cc2c(C#N)ccc(-c3cnccc3SC3(C(=O)O)CCC3)n2c1 | 7.35
